Where do these numbers come from? They come from patent US12441725B2.

IC50 for assorted compounds
Target: IDH1 R132H (Homo sapiens, UniProt O75874, R132H)
Construct: 6xHis
Sequence (O75874 whole entry R132H): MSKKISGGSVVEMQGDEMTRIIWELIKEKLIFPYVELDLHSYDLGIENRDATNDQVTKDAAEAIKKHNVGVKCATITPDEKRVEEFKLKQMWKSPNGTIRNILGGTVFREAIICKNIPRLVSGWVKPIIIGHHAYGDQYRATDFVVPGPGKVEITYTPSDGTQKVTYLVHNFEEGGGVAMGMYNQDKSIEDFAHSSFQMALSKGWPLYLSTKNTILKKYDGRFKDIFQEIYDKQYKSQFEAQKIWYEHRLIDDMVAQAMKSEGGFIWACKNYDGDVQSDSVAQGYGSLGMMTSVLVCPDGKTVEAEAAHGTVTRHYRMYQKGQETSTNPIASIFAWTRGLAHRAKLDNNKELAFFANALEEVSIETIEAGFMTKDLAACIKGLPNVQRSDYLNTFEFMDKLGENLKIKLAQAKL
Assay: Biochemical assay for IDH inhibition (NADPH fluorescence), mutant IDH1 R132H
Settings: 50 nM IDH1-R132H, 1 hour pre-incubation, in triplet
Description: The present disclosure provides a biochemical assay method for detecting the IDH inhibition and selectivity of the compounds by detecting IDH enzyme activity directly. Wild-type IDH enzymes convert NADP^+ to NADPH when catalyzing the α-KG producing reaction. […] So, the activity of wild-type and mutant IDH1/2 could be measured by monitoring NADPH level change as NADPH is fluorescent (Excitation 340 nm, Emission 460 nm). […]

Below: 4 compounds and their reported IC50.
# Compound, Result
data = [
    ("CCN1Cc2c(ccnc2N[C@@H](C)c2ccc(Oc3ccc(C(C)(C)C)nc3)c(F)c2)C1=O [Compound 7]", "0.1 to 0.5 µM"),
    ("CCN1Cc2c(ccnc2N[C@@H](C)c2cc(F)c(-c3ccnc(-c4ccccc4)c3)cc2F)C1=O [Compound 98]", "0.5 to 1 µM"),
    ("CCN1Cc2c(ccnc2N[C@@H](C)c2cc(F)c(-c3cc(C(F)(F)F)cc(O)n3)cc2F)C1=O [Compound 157]", "0.1 to 0.5 µM"),
    ("CCN1Cc2c(ccnc2N[C@@H](C)c2ccc(-c3ccnc(C(C)(C)C)c3)c(F)c2)C1=O [Compound 71]", "< 0.1 µM"),
]

Lookup: Report IC50 for CCN1Cc2c(ccnc2N[C@@H](C)c2cc3cc(Cl)ccc3[nH]c2=O)C1=O [Compound 64] please.
Found: 0.1 to 0.5 µM

Lookup: CCN1Cc2c(ccnc2N[C@@H](C)c2cc(F)c(-c3ccnc(C4COC4)c3)cc2F)C1=O [Compound 93] , same question.
Found: > 1 µM

Lookup: CCN1Cc2c(ccnc2N[C@@H](C)c2cc(F)c(-c3ccc(OC)c(C(C)(C)C)n3)cc2F)C1=O [Compound 149] , same question.
Found: < 0.1 µM
